Each entry below lists one item and its recorded IC50 value.
target-of-assay: EGFR (L858R T790M C797S) (Homo sapiens, UniProt P00533, C797S/L858R/T790M)
Sequence (P00533 25-1210 T790M/C797S/L858R): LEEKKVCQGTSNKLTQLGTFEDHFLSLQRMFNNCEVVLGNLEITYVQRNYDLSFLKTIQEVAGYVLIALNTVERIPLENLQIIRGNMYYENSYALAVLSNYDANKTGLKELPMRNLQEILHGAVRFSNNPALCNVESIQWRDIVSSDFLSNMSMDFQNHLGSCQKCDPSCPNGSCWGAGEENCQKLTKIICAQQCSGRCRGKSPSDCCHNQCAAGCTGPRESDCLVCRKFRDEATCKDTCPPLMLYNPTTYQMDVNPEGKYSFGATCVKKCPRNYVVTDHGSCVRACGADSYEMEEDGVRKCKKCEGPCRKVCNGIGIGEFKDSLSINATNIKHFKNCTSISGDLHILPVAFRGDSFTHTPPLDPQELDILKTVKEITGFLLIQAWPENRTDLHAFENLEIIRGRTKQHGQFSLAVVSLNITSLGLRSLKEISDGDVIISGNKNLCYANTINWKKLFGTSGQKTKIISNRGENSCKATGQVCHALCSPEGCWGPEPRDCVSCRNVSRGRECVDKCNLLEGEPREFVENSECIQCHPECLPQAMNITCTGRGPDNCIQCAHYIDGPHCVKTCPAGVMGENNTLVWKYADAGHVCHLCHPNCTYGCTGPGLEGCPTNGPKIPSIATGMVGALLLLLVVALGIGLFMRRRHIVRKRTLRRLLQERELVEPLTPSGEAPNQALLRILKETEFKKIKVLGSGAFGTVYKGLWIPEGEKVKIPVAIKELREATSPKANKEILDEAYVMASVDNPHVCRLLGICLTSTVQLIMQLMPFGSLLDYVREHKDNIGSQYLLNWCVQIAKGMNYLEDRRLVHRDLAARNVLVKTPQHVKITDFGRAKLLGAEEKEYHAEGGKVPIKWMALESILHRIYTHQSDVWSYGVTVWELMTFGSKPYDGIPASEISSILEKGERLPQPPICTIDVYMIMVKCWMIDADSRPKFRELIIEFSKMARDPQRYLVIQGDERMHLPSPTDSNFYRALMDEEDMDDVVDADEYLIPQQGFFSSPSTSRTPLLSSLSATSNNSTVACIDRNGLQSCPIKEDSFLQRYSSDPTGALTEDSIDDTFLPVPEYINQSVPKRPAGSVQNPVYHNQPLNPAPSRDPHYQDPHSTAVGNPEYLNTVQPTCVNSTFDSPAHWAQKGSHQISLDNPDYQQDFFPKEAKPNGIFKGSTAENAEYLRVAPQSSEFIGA
protocol-text: Biochemical EGFR inhibition assay (Caliper mobility shift), EGFR LRTMCS mutant
test-settings: inhibitory activity against EGFR LRTMCS mutant; apparent IC50; read-out: Ext Enz LRTMCS

Q: Given the compound CC(C)c1ccc(N2CC(CS(C)(=O)=O)C2)c2cnc(Nc3ccnc(N4CCCC(O)CC4)n3)cc12 (racemic) , what is its reported IC50?
Result: 20.1 to 30 nM

Q: Queued: CCS(=O)(=O)C[C@H]1CN(c2nnc(C(C)C)c3cc(Nc4ccnc(N5CC[C@H](OC)[C@H](F)C5)n4)ncc23)[C@@H]1C
Result: ≤ 15 nM

----------
target-of-assay: EGFR (L858R T790M C797S) (Homo sapiens, UniProt P00533, C797S/L858R/T790M)
Construct: purchased SignalChem E10-122VG
protocol-text: Biochemical EGFR inhibition assay (Caliper mobility shift), EGFR LRTMCS mutant
test-settings: inhibitory activity against EGFR LRTMCS mutant; apparent IC50; read-out: Ext Enz LRTMCS
quantity: IC50

Reference set (2 entries):
{"columns": ["molecule", "IC50"],
 "data": [
  ["CO[C@H]1CCN(c2nccc(Nc3cc4c(C(C)C)cnc(N5CC(C[S@@](C)(=N)=O)[C@H]5C)c4cn3)n2)C[C@H]1F (single isomer, unassigned) [Compound 108]", "≤ 0.015 µM"],
  ["CC(C)c1ccc(N2CC(CS(C)(=O)=O)C2)c2cnc(Nc3ccnc(N4CC[C@](F)([C@@H](C)O)C4)n3)cc12 (single isomer, unassigned)", "0.0151 to 0.02 µM"]
]}

Q: Given the molecule CC(C)c1ccc(N2C[C@H](CS(C)(=O)=O)[C@H]2C)c2cnc(Nc3ccnc(N4CC[C@@H](F)[C@@H](O)C4)n3)cc12 (single isomer, unassigned) , what is its reported IC50?
Result: ≤ 0.015 µM

Q: Queued: COc1ccc(N2CC(CS(C)(=O)=O)C2)c2cnc(Nc3ccnc(N4C[C@@H](F)[C@@H](O)C(C)(C)C4)n3)cc12 (single isomer, unassigned)
Result: ≤ 0.015 µM

Q: Queued: CCS(=O)(=O)CC1CN(c2ccc(C(C)C)c3cc(Nc4ccnc(N5CC[C@@H](O)[C@@](C)(F)C5)n4)ncc23)C1 (single isomer, unassigned)
Result: ≤ 0.015 µM

----------
target-of-assay: EGFR (L858R T790M C797S) (Homo sapiens, UniProt P00533, C797S/L858R/T790M)
protocol-text: Biochemical EGFR inhibition assay (Caliper mobility shift), EGFR LRTMCS mutant
test-settings: inhibitory activity against EGFR LRTMCS mutant; apparent IC50; read-out: Ext Enz LRTMCS
quantity: IC50

Reference set (4 entries):
{"columns": ["compound", "target-of-assay", "IC50"],
 "data": [
  ["CO[C@@H]1[C@H](O)CN(c2nccc(Nc3cc4c(C(C)C)ccc(N5C[C@H](CS(C)(=O)=O)[C@H]5C)c4cn3)n2)CC1(F)F (single isomer, unassigned)", "EGFR (L858R T790M C797S) (Homo sapiens, UniProt P00533, C797S/L858R/T790M)", "0.0301 to 0.1 µM"],
  ["CO[C@@H]1CCN(c2nccc(Nc3cc4c(C(C)C)ccc(N5C[C@H](CS(C)(=O)=O)[C@H]5C)c4cn3)n2)C[C@]1(C)F (single isomer, unassigned)", "EGFR (L858R T790M C797S) (Homo sapiens, UniProt P00533, C797S/L858R/T790M)", "0.0201 to 0.03 µM"],
  ["COC1CCN(c2nncc(Nc3cc4c(C(C)C)ccc(N5CC(CS(C)(=O)=O)C5)c4cn3)n2)CC1", "EGFR (L858R T790M C797S) (Homo sapiens, UniProt P00533, C797S/L858R/T790M)", "≤ 0.015 µM"],
  ["CCS(=O)(=O)C[C@H]1CN(c2cnc(C(C)C)c3cc(Nc4ccnc(N5CC[C@@H](OCCO)[C@@H](F)C5)n4)ncc23)[C@@H]1C", "EGFR (L858R T790M C797S) (Homo sapiens, UniProt P00533, C797S/L858R/T790M)", "≤ 0.015 µM"]
]}

Q: Given the compound CO[C@H]1CCN(c2nccc(Nc3cc4c(C(C)C)ccc(N5C[C@H](CS(C)(=O)=O)[C@H]5C)c4cn3)n2)C[C@H]1OCCO (single isomer, unassigned) , what is its reported IC50?
Result: ≤ 0.015 µM
